# test name: drug combination growth inhibition, ovarian cancer – cell-based, oncology-focused library, rucaparib conditional, profiling panel (AID 1508598)
# cond: patient-derived ovarian cancer cells, CellTiter-Glo viability, 144 h; at 0.313 µM; OCI-P5x cells; without rucaparib
The source made the active and inactive calls.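 The calls were made as follows: active = normalized viability below 100% at a tested concentration; inactive = the rest.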
Give your call using only these classes: active, inactive

Ask | Would you mind telling me which call this test gave CN(C)Cc1ccc(-c2nc3cccc4c3n2CCNC4=O)cc1 ?
Reply | inactive

Ask | Could you please tell me the result logged for CC(C)c1cc(-c2n[nH]c(=O)n2-c2ccc3c(ccn3C)c2)c(O)cc1O in this assay?
Reply | active

Ask | Given CCn1c(-c2nonc2N)nc2c(C#CC(C)(C)O)ncc(OC[C@H]3CCCNC3)c21 , state the outcome it received in this test.
Reply | inactive

Ask | Tell me the recorded outcome of this test for CN1CCN(c2ccc(OC(F)(F)F)c(Nc3ncc4c(n3)-c3c(c(C(N)=O)nn3CCO)CC4)c2)CC1 .
Reply | active

Ask | GET /call?item= CS(=O)(=O)c1cccc(CNc2nc(Nc3ccc4c(c3)CCC(=O)N4)ncc2C(F)(F)F)c1 returns the recorded outcome of this test.
Reply | inactive

Ask | For COCCOc1nc(-c2ccc(Cl)c(Cl)c2)n(-c2ccc(NC(=O)CCl)cc2)n1 , which call appears in the assay record?
Reply | active

Ask | Per the records of this test, what outcome belongs to C=CC(=O)N1CCC[C@@H](n2nc(-c3ccc(Oc4ccccc4)cc3)c3c(N)ncnc32)C1 ?
Reply | active

Ask | What outcome does the record of this test show for CC(=O)c1c(C)c2cnc(Nc3ccc(N4CCNCC4)cn3)nc2n(C2CCCC2)c1=O ?
Reply | active

Ask | // param item: Cc1ccc(NC(=O)c2cccc(C(C)(C)C#N)c2)cc1Nc1ccc2ncn(C)c(=O)c2c1 ; yields the recorded call
Reply | active

Ask | Could you kindly confirm the outcome this assay logged for CN1CCN(c2cccc(Nc3nc4c(-c5ccc(S(C)(=O)=O)cc5)cccn4n3)c2)CC1 ?
Reply | inactive

Ask | Please indicate how the test categorized CC1(C)CCC(c2ccc(Cl)cc2)=C(CN2CCN(c3ccc(C(=O)NS(=O)(=O)c4ccc(N[C@H](CCN5CCOCC5)CSc5ccccc5)c(S(=O)(=O)C(F)(F)F)c4)cc3)CC2)C1 .
Reply | active

Ask | For CCCCc1nc2cc(/C=C/C(=O)NO)ccc2n1CCN(CC)CC , which call appears in the assay record?
Reply | active

Ask | For CC(C)(C)c1cnc(CSc2cnc(NC(=O)C3CCNCC3)s2)o1 , which call appears in the assay record?
Reply | active

Ask | Please indicate how the test categorized Nc1ccn([C@@H]2O[C@H](CO)[C@@H](O)C2(F)F)c(=O)n1 .
Reply | active

Ask | Dear colleague, could you share the recorded outcome for Cn1cnc(=N)c2[nH]cnc21 when you have a moment?
Reply | inactive

Ask | # fetch the recorded call for S=C(NCc1ccc2c(c1)OCO2)N1CCN(c2ncnc3c2oc2ccccc23)CC1 here
Reply | inactive

Ask | Each compound tested received a call. Report the one for CN(C)C/C=C/C(=O)Nc1cc2c(Nc3ccc(F)c(Cl)c3)ncnc2cc1O[C@H]1CCOC1 .
Reply | active

Ask | Hi, sorry to bother you, what did the test record for CC1(COc2ccc3c(c2)ncn3-c2ccc3cccc(N4CCC(N)CC4)c3n2)COC1 ?
Reply | inactive

Ask | Each compound tested received a call. Report the one for CCOc1ccn(-c2ccc(F)cc2)c(=O)c1C(=O)Nc1ccc(Oc2ccnc(N)c2Cl)c(F)c1 .
Reply | inactive
